Tested on: MCF7
assay_explanation: Cytotoxicity against doxorubicin-sensitive human MCF7 cells
Type: functional, cell-based
recorded_endpoint: pIC50
Scale note: pIC50 = -log10(concentration in M).

The cases that follow already have their pIC50 on record.
[[record]]
smiles_entry = "COc1cc(OC)c2c(-c3ccc4c(c3)OCO4)c3c(c(OC)c2c1O)COC3=O"
recorded_result = 6.44

[[record]]
smiles_entry = "COc1cc2c(O[C@H]3O[C@@H](C)[C@@H](OC(C)=O)[C@@H](O)[C@@H]3O)c3c(c(-c4ccc5c(c4)OCO5)c2cc1OC)C(=O)OC3"
recorded_result = 7.92


Form: compound = COc1cc2c(O[C@H]3O[C@@H](C)[C@@H](OC(C)=O)[C@@H](OC(C)=O)[C@@H]3OC(C)=O)c3c(c(-c4ccc5c(c4)OCO5)c2cc1OC)C(=O)OC3 ; pIC50 = 7.35

----------
Test system: MCF7
assay_explanation: Cytotoxicity against doxorubicin-resistant human MCF7 cells
Format: functional, cell-based
recorded_endpoint: pIC50
Scale note: pIC50 = -log10(concentration in M).

The cases that follow already have their pIC50 on record.
[[record]]
compound = "COc1cc2c(O[C@@H]3O[C@H](CO[C@@H]4OC[C@H](O)[C@H](O)[C@H]4O)[C@H](OC(C)=O)[C@H](OC(C)=O)[C@H]3O)c3c(c(-c4ccc5c(c4)OCO5)c2cc1OC)C(=O)OC3 [4'-O-ACETYLMANANTHOSIDE B]"
recorded_result = 5.66

[[record]]
compound = "COc1cc2c(O[C@H]3O[C@@H](C)[C@@H](OC(C)=O)[C@@H](O)[C@@H]3O)c3c(c(-c4ccc5c(c4)OCO5)c2cc1OC)C(=O)OC3 [4'-O-ACETYLPATENTIFLORIN B]"
recorded_result = 7.00

[[record]]
compound = "COc1cc2c(O[C@@H]3O[C@H](C)[C@@H](O)[C@H](O)[C@H]3O)c3c(c(-c4ccc5c(c4)OCO5)c2cc1OC)C(=O)OC3 [PATENTIFLORIN A]"
recorded_result = 7.40


Form: compound = COc1cc2c(O[C@@H]3O[C@H](CO[C@@H]4OC[C@H](OC(C)=O)[C@H](OC(C)=O)[C@H]4OC(C)=O)[C@H](OC(C)=O)[C@H](OC(C)=O)[C@H]3OC(C)=O)c3c(c(-c4ccc5c(c4)OCO5)c2cc1OC)C(=O)OC3 ; pIC50 = 5.10

Form: compound = COc1cc2c(O[C@@H]3O[C@H](C)[C@@H](OC(C)=O)[C@H](OC(C)=O)[C@H]3OC(C)=O)c3c(c(-c4ccc5c(c4)OCO5)c2cc1OC)C(=O)OC3 ; pIC50 = 7.19

----------
System: MCF7
assay_explanation: Cytotoxicity against doxorubicin-sensitive human MCF7 cells
Assay type: functional, cell-based
recorded_endpoint: log10 IC50 (log10 of the value in nM)
Parameter value (number): base-10 log of IC50 in nM.

[[record]]
molecule = "COc1cc2c(O[C@@H]3O[C@H](CO[C@@H]4OC[C@H](O)[C@H](O)[C@H]4O)[C@H](OC(C)=O)[C@H](OC(C)=O)[C@H]3O)c3c(c(-c4ccc5c(c4)OCO5)c2cc1OC)C(=O)OC3 [4'-O-ACETYLMANANTHOSIDE B]"
recorded_result = 2.41


Form: molecule = COc1cc2c(O[C@@H]3O[C@H](CO[C@@H]4OC[C@H](OC(C)=O)[C@H](OC(C)=O)[C@H]4OC(C)=O)[C@H](OC(C)=O)[C@H](OC(C)=O)[C@H]3OC(C)=O)c3c(c(-c4ccc5c(c4)OCO5)c2cc1OC)C(=O)OC3 ; log10 IC50 = 1.90

Form: molecule = COc1cc2c(O[C@@H]3O[C@H](C)[C@@H](OC(C)=O)[C@H](OC(C)=O)[C@H]3OC(C)=O)c3c(c(-c4ccc5c(c4)OCO5)c2cc1OC)C(=O)OC3 ; log10 IC50 = 0.30

Form: molecule = CC(=O)O[C@@]12CO[C@@H]1C[C@H](O)[C@@]1(C)C(=O)[C@H](O)C3=C(C)[C@@H](OC(=O)[C@H](O)[C@@H](NC(=O)OC(C)(C)C)c4ccccc4)C[C@@](O)([C@@H](OC(=O)c4ccccc4)[C@H]21)C3(C)C ; log10 IC50 = 1.30

Form: molecule = COc1cc2c(O[C@@H]3O[C@H](C)[C@@H](O)[C@H](O)[C@H]3O)c3c(c(-c4ccc5c(c4)OCO5)c2cc1OC)C(=O)OC3 ; log10 IC50 = 0.48

Form: molecule = COc1cc2c(O[C@H]3O[C@@H](C)[C@@H](O)[C@@H](O)[C@@H]3O)c3c(c(-c4ccc5c(c4)OCO5)c2cc1OC)C(=O)OC3 ; log10 IC50 = 2.48
